# System: K-562 leukemia
# assay explanation: NCI tumour cell line growth inhibition, 48 h
experimental endpoint: TGI

compound | target system | experimental endpoint | meas value
O=C1C=CC2(C=C1)O[C@H](CCc1ccccc1)[C@@H](CCc1ccccc1)O2 | K-562 leukemia | TGI | > 100 µM
CCn1cnc(C[C@H](NC(=O)[C@@H](NC(=O)Nc2cc(C(F)(F)F)cc(C(F)(F)F)c2)C(C)(C)C)C(=O)OC)c1 | K-562 leukemia | TGI | > 10 µM
NC(N)=N/N=C/c1c(Cl)nc2n1CCS2 | K-562 leukemia | TGI | > 100 µM
CC1(C)CCOC(Sc2ccccc2)C1 (stereo not given) | K-562 leukemia | TGI | > 100 µM
O=C1c2ccccc2C(=O)N1CCN(CCN1C(=O)c2ccccc2C1=O)Cc1ccccc1 | K-562 leukemia | TGI | > 100 µM
Cc1nsc2cc(Cl)n(C)c(=O)c12 | K-562 leukemia | TGI | > 100 µM
CC[n+]1c(/C=C/c2cc(C(=O)OC)n3c2sc2ccccc23)sc2ccccc21 | K-562 leukemia | TGI | 31.2 µM
COc1ccc(-n2c(C)nc3ccc(NC4OCC(OC(C)=O)C(OC(C)=O)C4OC(C)=O)cc3c2=O)cc1 (stereo not given) | K-562 leukemia | TGI | > 100 µM
COc1cc(/C=C/C(=O)c2cccc(-n3cc(-c4ccccc4)[nH]c3=O)c2)ccc1O | K-562 leukemia | TGI | 9.29 µM
O=S(=O)(c1ccccc1)C1(C2(S(=O)(=O)c3ccccc3)CCN=N2)CCN=N1 (stereo not given) | K-562 leukemia | TGI | > 100 µM

###

Each record here notes measured TGI.
# System: SNB-19 CNS
# assay explanation: NCI tumour cell line growth inhibition, 48 h
experimental endpoint: TGI

molecule | meas value
Cc1c2cnccc2c(C)c2c1c1ccccc1n2CCCCCCCl | > 50 µM
COc1cc(C(C)c2cc3c(cc2OCCCCCOc2cc4c(cc2C(C)c2cc(OC)c(OC)c(OC)c2)OCO4)OCO3)cc(OC)c1OC (centres undefined) | > 100 µM
N/N=C1\C(=O)N(c2ccc(Cl)c(Cl)c2)C(=O)C1C(=O)Nc1ccc(Cl)c(Cl)c1 (centres undefined) | > 100 µM
C=CCN=C1NC(=O)C(CC(=O)Nc2ccc([N+](=O)[O-])cc2[N+](=O)[O-])S1 (centres undefined) | > 100 µM
CC(C)OC(=O)NNc1c(Cl)cc(Cl)cc1Cl | > 100 µM
NNC(=S)N/N=C(\c1nc2ccc(Cl)cc2[nH]c1=O)C(O)c1cccc([N+](=O)[O-])c1 (centres undefined) | > 100 µM
Clc1nc(NC23CC4CC(CC(C4)C2)C3)nc(NC23CC4CC(CC(C4)C2)C3)n1 | > 100 µM
COc1cccc2c1C(=O)c1c(O)c3c(c(O)c1C2=O)C[C@@](O)(C(=O)CO)C[C@@H]3OC1CC2C(OCN2CN2COC3C(C)OC(O[C@H]4C[C@](O)(C(=O)CO)Cc5c(O)c6c(c(O)c54)C(=O)c4c(OC)cccc4C6=O)CC32)C(C)O1 (some centres undefined) | 0.0256 µM
Fc1nc(-c2c3ccccc3c3sc4ccccc4n23)nc(N2CCOCCOCCOCCOCC2)n1 | > 100 µM
Cc1ncc2c(n1)CCC1=C2OS(=O)(=O)CC1N(C)C (centres undefined) | > 100 µM
N#Cc1ccc(N=NN2CCCC2)cc1 | > 100 µM
CCOc1ccc(NC(=O)/C=C/c2ccco2)cc1 | > 100 µM
Cc1ccc(S(=O)(=O)NC(=O)Nc2ncn[nH]2)cc1 | > 100 µM
COc1cccc(/C=C2\COc3ccc(O)c(O)c3C2=O)c1OC | 12 µM
O=[N+]([O-])C(=C1c2ccccc2-c2ccccc21)[N+](=O)[O-] | > 100 µM
C[C@]12CC/C(=N\OCCN3CCCC3)C=C1CCC1C2CC[C@@]2(C)C1CC[C@]2(C)O (some centres undefined) | 49 µM
O=C1C2C3C=CC(C2C(=O)N1CN1CCOCC1)C1C2C(=O)N(CN4CCOCC4)C(=O)C2C31 (centres undefined) | > 78.9 µM
CCN1C(c2ccccc2)=CC(c2ccccc2)(C(Cl)(Cl)Cl)C=C1c1ccccc1 | > 100 µM
CCCCCCCCCCCC(=O)OCC(O)CO (centres undefined) | > 100 µM
c1ccc2c(c1)n1c(N3CCCC3)[n+]3ccccc3c1c1c3cccc[n+]3c(N3CCCC3)n21 | > 100 µM
CC[P+](C)(C)CC | > 100 µM
O=S(=O)([O-])c1ccc(C=Nc2ccccc2)c([O-])c1.O=S(=O)([O-])c1ccc(C=Nc2ccccc2)c([O-])c1.[Co+2] | > 100 µM
O=C(O)CC(CC(=O)O)n1cccc1 | > 100 µM
O=C1NCC2(CCN(CC3COc4ccccc4O3)CC2)N1c1ccccc1 (centres undefined) | > 100 µM
O=C(N/N=C/c1cc(Cl)cc(Cl)c1[O-])c1ccccc1O.O=C(N/N=C/c1cc(Cl)cc(Cl)c1[O-])c1ccccc1O.[Mn+2] | 16.1 µM
Cc1ccc(C(=O)c2[nH]c(NCc3ccccc3)c(C(=S)Nc3ccccc3)c2N)cc1 | 29.1 µM
CN(C)Cc1cc(C(=O)/C=C/c2ccc(Cl)cc2Cl)cc(CN(C)C)c1O | 19.9 µM
COC(=O)N1C=CC2=C(C)C3Nc4ccccc4C3C(C)=C2C1 (centres undefined) | > 100 µM
CC(C)CC1C(=O)OC(C)(C)OC1=O | > 100 µM
COc1ccc(-n2c(C)nc3ccc(NC4OCC(OC(C)=O)C(OC(C)=O)C4OC(C)=O)cc3c2=O)cc1 (centres undefined) | > 100 µM
CSCCCNC(=O)c1csc(-c2csc(CCNC(=O)CNC(=O)OC(C)(C)C)n2)n1 | > 100 µM
CC(=O)OC1CCC2(C)C(=CCC3C2CCC2(C)C3CC3OC4(CCC(C)CN4)C(C)C32)C1 (centres undefined) | > 100 µM
O=C1C=C(c2ccccc2)NC1(c1ccccc1)c1cc(-c2ccccc2)[nH]c1-c1ccccc1 (centres undefined) | > 100 µM
COc1ccc2[nH]c(=O)cc(C)c2c1[N+](=O)[O-] | > 100 µM
C=C1C(=O)OC2/C=C(\CO)C3OC3C3OC3(C)CC(OC(=O)/C(=C/C)COC(C)=O)C12 (centres undefined) | 28.6 µM
N=c1oc2ccccc2cc1C(=O)Nc1ccccn1 | > 100 µM
CCCCCCCCCCCCCCCCNc1nc(=O)n(C2CC(O)C(COP(=O)(O)OC3CC(n4cc(F)c(=O)[nH]c4=O)OC3CO)O2)cc1F (centres undefined) | 3.39 µM
COc1cc2c(cc1OCCCN1CCOCC1)N=C[C@@H]1CCCN1C2=O | > 100 µM
CC(Oc1ccc(Cl)cc1Cl)C(=O)NN1C(=O)CC(=O)NC1=S (centres undefined) | > 100 µM
